Molecular target: MAST2, Q6P0Q8
Sequence (Q6P0Q8 1099-1202): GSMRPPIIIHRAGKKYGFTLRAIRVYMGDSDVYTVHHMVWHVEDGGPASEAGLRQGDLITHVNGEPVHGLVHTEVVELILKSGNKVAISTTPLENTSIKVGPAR
Experiment: holdup assay
Parameters: key: below the threshold = too weak to quantify, mostly under pKd 3.1 to 4
Conditions: plain residues with an end cap or a label only (N-terminal biotin on a linker: ado-ado)
property-measured: pKd
Reply with the value as a number alone.

INPUT: Param item = GTMFLRETSL [GUCY1A2, P33402] ; retrieve measured pKd.
OUTPUT: 5.68

INPUT: # get_value(readout='pKd', item= KIEDVEITLV [FCHSD2, O94868] )
OUTPUT: 5.63

INPUT: Give the measured pKd of VKQYADVEGF [HNRNPK, P61978] .
OUTPUT: 3.87

INPUT: Give its pKd value. Item: PALKNGQYWV [CSPG4, Q6UVK1]
OUTPUT: 4.07

INPUT: Please look up its pKd: VYEVPVETKF [SLC26A3, P40879]
OUTPUT: 5.48

INPUT: Please give the measured pKd for this binder: THREVKFTSL [CD46, P15529]
OUTPUT: 5.57

INPUT: Consider the binder PLPPEEESWV [GAS2L2, Q8NHY3] and give its measured pKd.
OUTPUT: 5.12
